Target under test: c-Src SH2;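 also: peptide library displayed on the E. coli surface as eCPX fusions, selected cells deep-sequenced, score is each peptide's frequency after selection divided by its frequency in the input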
Test name: SH2 binding enrichment of the phosphorylated peptide, bacterial display (enrichment ratio); higher = better substrate or ligand; peptides without Tyr show the background
Endpoint name: SH2 binding enrichment

# Sequence record, SH2 binding enrichment
measured = [
    ("NTQRPHFKGGG [TYROBP_Y111_Y111H_YF]", 0.925),
    ("QKINKYLTVPA [SLC9A1_Y683_N682K]", 0.607),
    ("PPGRSYSPCDY [TNS1_Y793_Y796C]", 1.26),
    ("QRPGLYDRPGA [HNRNPH2_Y210_P209L]", 1.59),
    ("ALAHKYLGGGG [HBB_Y146_H147L]", 0.503),
]

(I) GREAEYSDKHG [EPHB4_Y574]
(II) LAARYYNWVCF [FLT4_Y1231_S1235C]
Select the item whose SH2 binding enrichment value is smaller, choosing between I and II . Answer by stating the label of the chosen item. I
(I: 0.402, II: 1.07)

---

Target under test: Fyn (UniProt P06241)
Sequence (P06241 whole entry, looked up): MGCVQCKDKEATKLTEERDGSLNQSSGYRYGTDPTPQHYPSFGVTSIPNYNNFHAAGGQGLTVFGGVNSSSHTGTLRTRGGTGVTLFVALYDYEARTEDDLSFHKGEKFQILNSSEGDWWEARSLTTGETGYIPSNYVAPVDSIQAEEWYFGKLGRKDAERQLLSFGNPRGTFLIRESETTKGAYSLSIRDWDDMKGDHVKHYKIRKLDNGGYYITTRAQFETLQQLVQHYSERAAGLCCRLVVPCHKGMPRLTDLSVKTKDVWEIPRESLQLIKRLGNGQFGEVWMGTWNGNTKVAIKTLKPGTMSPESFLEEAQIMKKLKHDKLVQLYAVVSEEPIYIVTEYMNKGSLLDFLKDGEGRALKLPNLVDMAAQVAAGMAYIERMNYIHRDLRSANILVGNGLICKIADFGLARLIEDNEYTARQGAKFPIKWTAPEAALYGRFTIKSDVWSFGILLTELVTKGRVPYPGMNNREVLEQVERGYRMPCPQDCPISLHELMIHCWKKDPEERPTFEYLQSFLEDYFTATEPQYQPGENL
Test name: phosphorylation enrichment, bacterial display (enrichment ratio); higher = better substrate or ligand; peptides without Tyr show the background
The following sequences are listed with their measured phosphorylation enrichment values.
// print number alone

A selection of reference data follows.
# Sequence record, Target under test, phosphorylation enrichment
rows = [
    ("RFLERYIFNRE [HLA-DPB1_Y57_YF]", "Fyn (UniProt P06241)", 0.311),
    ("IGEGTYGVVFK [CDK2_Y15_YF]", "Fyn (UniProt P06241)", 7.22),
    ("AKLVQYYMEHH [PTPN11_Y80_E76K]", "Fyn (UniProt P06241)", 0.469),
    ("KPGVNYYFRVS", "Fyn (UniProt P06241)", 0.368),
]

Query sequence follows.
Supply phosphorylation enrichment value. Item: TAPYNYSYIFK [RAB14_Y8] 0.354

---

Target under test: Jak2 (UniProt O60674)
Sequence (O60674 whole entry, looked up): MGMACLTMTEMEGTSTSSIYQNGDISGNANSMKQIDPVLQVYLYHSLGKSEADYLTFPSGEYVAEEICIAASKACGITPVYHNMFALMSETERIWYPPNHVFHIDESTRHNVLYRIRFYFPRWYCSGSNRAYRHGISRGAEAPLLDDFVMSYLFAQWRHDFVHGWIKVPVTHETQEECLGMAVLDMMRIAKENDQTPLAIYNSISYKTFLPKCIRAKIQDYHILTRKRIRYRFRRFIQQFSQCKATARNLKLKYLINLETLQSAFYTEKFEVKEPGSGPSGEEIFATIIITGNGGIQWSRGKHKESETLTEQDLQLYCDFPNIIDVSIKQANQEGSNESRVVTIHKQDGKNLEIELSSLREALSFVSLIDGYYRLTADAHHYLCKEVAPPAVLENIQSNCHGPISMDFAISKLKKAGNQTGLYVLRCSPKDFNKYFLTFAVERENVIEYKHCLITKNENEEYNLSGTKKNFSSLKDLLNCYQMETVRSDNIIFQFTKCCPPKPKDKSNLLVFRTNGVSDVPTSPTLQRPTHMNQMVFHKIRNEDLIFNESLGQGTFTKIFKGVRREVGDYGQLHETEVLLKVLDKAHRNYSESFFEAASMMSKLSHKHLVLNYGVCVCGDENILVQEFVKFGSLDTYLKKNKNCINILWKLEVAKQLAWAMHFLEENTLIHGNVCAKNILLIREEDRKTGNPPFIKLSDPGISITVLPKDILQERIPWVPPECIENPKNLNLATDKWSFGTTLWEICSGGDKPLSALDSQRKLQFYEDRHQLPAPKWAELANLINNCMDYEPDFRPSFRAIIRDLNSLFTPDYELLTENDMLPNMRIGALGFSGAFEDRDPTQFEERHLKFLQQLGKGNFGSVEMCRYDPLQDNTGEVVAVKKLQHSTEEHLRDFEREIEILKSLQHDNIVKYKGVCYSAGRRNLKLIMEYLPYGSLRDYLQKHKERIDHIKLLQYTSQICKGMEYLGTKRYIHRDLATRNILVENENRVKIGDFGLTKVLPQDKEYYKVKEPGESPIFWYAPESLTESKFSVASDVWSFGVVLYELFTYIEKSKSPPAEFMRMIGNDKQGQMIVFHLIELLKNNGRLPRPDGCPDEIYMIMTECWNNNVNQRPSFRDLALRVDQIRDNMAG
Test name: phosphorylation enrichment, bacterial display (enrichment ratio); higher = better substrate or ligand; peptides without Tyr show the background
Endpoint name: phosphorylation enrichment
// print number alone

# Sequence record, phosphorylation enrichment
records = [
    ("SGGGSYGSGGG [KRT1_Y539]", 0.599),
]

Supply phosphorylation enrichment value. Item: MAPQMYEFHLP [NCAPD2_Y6] 0.592

Supply phosphorylation enrichment value. Item: MKNQKYGRIIM [HSD17B4_Y143_K140N] 0.587

---

Target under test: Fes (UniProt P07332)
Sequence (P07332 whole entry, looked up): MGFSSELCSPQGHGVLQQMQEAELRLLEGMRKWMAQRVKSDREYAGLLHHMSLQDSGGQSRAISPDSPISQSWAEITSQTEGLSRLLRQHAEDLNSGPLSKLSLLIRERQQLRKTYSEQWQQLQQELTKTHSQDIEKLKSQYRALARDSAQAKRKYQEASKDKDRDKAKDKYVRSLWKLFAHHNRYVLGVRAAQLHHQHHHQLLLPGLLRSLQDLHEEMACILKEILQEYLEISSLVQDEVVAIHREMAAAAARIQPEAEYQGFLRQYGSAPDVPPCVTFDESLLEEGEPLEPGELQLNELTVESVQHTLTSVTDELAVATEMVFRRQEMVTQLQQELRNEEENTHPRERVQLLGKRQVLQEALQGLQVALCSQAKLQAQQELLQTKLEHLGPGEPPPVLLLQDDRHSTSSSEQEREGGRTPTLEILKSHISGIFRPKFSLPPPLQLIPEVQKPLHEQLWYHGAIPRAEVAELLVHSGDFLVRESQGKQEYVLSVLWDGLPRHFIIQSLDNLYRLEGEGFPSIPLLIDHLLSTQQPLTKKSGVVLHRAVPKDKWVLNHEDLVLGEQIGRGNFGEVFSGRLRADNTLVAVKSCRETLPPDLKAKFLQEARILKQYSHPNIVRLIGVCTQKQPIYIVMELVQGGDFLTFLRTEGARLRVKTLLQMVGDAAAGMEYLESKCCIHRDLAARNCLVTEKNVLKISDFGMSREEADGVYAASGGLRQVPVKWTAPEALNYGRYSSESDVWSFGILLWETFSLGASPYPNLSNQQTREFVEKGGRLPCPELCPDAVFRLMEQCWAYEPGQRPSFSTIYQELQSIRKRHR
Test name: phosphorylation enrichment, bacterial display (enrichment ratio); higher = better substrate or ligand; peptides without Tyr show the background
Endpoint name: phosphorylation enrichment
// print number alone

A selection of reference data follows.
# Sequence record, Endpoint name, Numeric value
data = [
    ("HEKKAYAFCGT [RPS6KA3_Y226_S227A]", "phosphorylation enrichment", 0.887),
    ("HHTDEYEFDEL [TGM1_Y134_YF]", "phosphorylation enrichment", 1.3),
    ("FLGRNYLETLM [DUS3L_Y610_D609N_YF]", "phosphorylation enrichment", 0.701),
    ("ITGNGYFFRVF [MYBPC3_Y1135_I1131T_YF]", "phosphorylation enrichment", 1.08),
    ("DVRQEYSGMIL [PLXND1_Y616_P617S]", "phosphorylation enrichment", 0.891),
]

Supply phosphorylation enrichment value. Item: IATAIYSGDKI [UGGT2_Y823] 0.671

Supply phosphorylation enrichment value. Item: RVKTPYSLKRW [BMPR2_Y979] 1.17

Supply phosphorylation enrichment value. Item: RRFVFYFSFLL [PTEN_Y177_YF] 0.744

Supply phosphorylation enrichment value. Item: RISGVYKLPPD [ANGPTL7_Y145] 0.852

Supply phosphorylation enrichment value. Item: CSEETYRLMLQ [RET_Y981_M980T] 1.29
